Study system: IDH1-R132H recombinant protein (Homo sapiens, UniProt O75874, R132H)
Sequence (O75874 whole entry R132H): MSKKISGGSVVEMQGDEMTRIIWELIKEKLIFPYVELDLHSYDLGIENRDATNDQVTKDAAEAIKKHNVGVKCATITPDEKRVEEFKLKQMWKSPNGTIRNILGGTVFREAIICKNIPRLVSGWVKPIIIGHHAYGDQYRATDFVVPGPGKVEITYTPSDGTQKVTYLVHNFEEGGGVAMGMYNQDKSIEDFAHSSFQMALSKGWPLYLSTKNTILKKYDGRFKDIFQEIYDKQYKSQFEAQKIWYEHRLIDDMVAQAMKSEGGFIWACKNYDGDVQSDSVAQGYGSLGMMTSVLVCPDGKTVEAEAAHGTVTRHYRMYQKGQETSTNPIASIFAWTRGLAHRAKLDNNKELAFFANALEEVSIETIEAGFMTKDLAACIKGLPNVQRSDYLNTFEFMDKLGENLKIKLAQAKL
Assay: IDH1-R132H enzymatic assay (NADPH consumption, diaphorase/resazurin readout)
Stated conditions: 30 nM IDH1-R132H, inhibition of NADPH consumption; read-out: Enzyme IDH1 R132H IC50
Recorded endpoint: IC50

compound="COc1cc2[nH]c(=O)c(C(C)Nc3ncc4c(n3)N(C)C(=O)OC4)cc2cc1Cl (racemic)" study_system="IDH1-R132H recombinant protein (Homo sapiens, UniProt O75874, R132H)" result="< 100 nM"

----------
Tested on: HCT116 isogenic IDH1-R132C mutant cells
Assay: Cellular 2-HG assay using HCT116 mutant IDH1-R132C cells
Format: cell-based
Stated conditions: Homo sapiens, HCT-116, 24 h, read-out: HCT116 IDH1 R132C IC50
Here the recorded IC50 is given for each entry.
Recorded endpoint: IC50

molecule=C[C@H](Nc1ncc2oc(=O)[nH]c2n1)c1cc2cc(Cl)ccc2[nH]c1=O result="> 10000 nM"
molecule=C[C@H](Nc1ncc2oc(=O)n(C)c2n1)c1cc2cc(Cl)ccc2[nH]c1=O result="100 to 1000 nM"
molecule=COc1cc2[nH]c(=O)c([C@H](C)Nc3ncc4c(n3)N(C)C(=O)OC4)cc2cc1Cl result="< 100 nM"
molecule=C[C@H](Nc1ncc2[nH]c(=O)n(C)c2n1)c1cc2cc(Cl)ccc2[nH]c1=O result="1000 to 10000 nM"
molecule=C[C@H](Nc1ncc2cn[nH]c2n1)c1cc2cc(Cl)ccc2[nH]c1=O result="100 to 1000 nM"
molecule="COc1cc2[nH]c(=O)c(C(C)Nc3ncc4c(n3)N(C)C(=O)OC4)cc2cc1Cl (racemic)" result="< 100 nM"
